Biological target: Human ALDH3A1 (Homo sapiens, UniProt P30838)
Sequence (P30838 1-453): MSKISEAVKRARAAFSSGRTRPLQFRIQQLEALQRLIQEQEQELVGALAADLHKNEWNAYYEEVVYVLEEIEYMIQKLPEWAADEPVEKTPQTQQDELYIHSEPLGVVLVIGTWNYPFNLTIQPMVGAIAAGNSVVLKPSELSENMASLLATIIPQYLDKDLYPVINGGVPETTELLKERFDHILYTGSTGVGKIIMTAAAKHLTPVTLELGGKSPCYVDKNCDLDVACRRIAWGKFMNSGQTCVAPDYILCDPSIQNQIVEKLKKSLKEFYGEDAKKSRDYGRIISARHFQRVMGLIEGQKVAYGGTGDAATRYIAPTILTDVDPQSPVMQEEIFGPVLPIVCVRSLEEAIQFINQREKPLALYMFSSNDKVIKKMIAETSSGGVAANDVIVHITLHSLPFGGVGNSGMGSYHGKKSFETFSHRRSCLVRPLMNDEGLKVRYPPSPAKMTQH
Assay: ALDH3A1 biochemical assay (benzaldehyde/NADP+, diaphorase-resazurin readout, 1,536-well)
Conditions: Table S1, primary screen
measured_metric: Efficacy
// no unit string in output, number only

Specify Efficacy for COc1ccc(NC(=O)N[C@H]2C[C@@H](C(=O)N[C@@H](Cc3cccs3)C(N)=O)N(C(=O)CSC)C2)cc1 and stop.
-63.09

Note down Efficacy recorded for CCOc1ccc(C(=O)NC2CCN(c3cc(-c4ccc(OC)cc4)n[nH]3)C2)cc1OCC (stereo not shown)
-29.34

Read off the recorded Efficacy for COc1ccc(CCC(=O)N2CCc3[nH]c(=O)c(C#N)cc3C2)c(OC)c1OC
-47.14

Supply measured Efficacy of Cc1cc(C)c(C)c([S+](=O)([O-])NCCC(=O)N2CCc3[nH]c(=O)c(C#N)cc3C2)c1C in your reply.
-52.11

###

Target: OE19 (3A1) (Homo sapiens, UniProt P30838)
Assay: Cellular ALDEFLUOR assay in OE19 cells (preferential ALDH3A1 expression)
Class field: derived from AC50; ranges b0: < 0.9 µM; b1: ≥ 0.9 µM and < 3 µM; b2: ≥ 3 µM

Into which category would you place Cc1cccc(CNC(=O)c2csc(N3CCN(c4ccc(C5(C#N)CC5)cc4)CC3)n2)c1 ?
b2

Determine which band this compound sits in: COc1ccc(N2CCN(c3nc(C(=O)NCc4cccc(C)c4)cs3)CC2)cc1O
b2

Tag the class for COc1ccc(N2CCN(c3nc(C(=O)NCc4cccc(C)c4)cs3)CC2)cc1OC
b2

Record O=C(NCc1cccc(C2CC2)c1)c1csc(N2CCN(c3cccc(C(F)(F)F)c3)CC2)n1 — which class?
b0

Which AC50 category applies to O=C(NCc1ccc(Cl)c(F)c1)c1csc(N2CCN(c3cccc(C(F)(F)F)c3)CC2)n1 here?
b1

Class? Entry: Cc1cccc(CNC(=O)c2csc(N3CCN(c4c(Cl)cccc4Cl)CC3)n2)c1
b2

Determine which band this compound sits in: Cc1cccc(CNC(=O)c2csc(N3CCN(c4ccc(O)cc4)CC3)n2)c1
b2

Sort O=C(NCc1ccc(Br)c(C(F)(F)F)c1)c1csc(N2CCN(c3cccc(C(F)(F)F)c3)CC2)n1 into one of the categories.
b1

Form field 'band' for O=C(NCc1cccc(Oc2ccccc2)c1)c1csc(N2CCN(c3cccc(C(F)(F)F)c3)CC2)n1
b1

Hi there! Could you help me figure out the category for Cc1cc(CNC(=O)c2csc(N3CCN(c4cccc(C(F)(F)F)c4)CC3)n2)ccc1Cl please?
b0

Bin? CC(C)(C)c1cccc(CNC(=O)c2csc(N3CCN(c4cccc(C(F)(F)F)c4)CC3)n2)c1
b0

Kindly identify the class of Cc1cccc(CNC(=O)c2csc(N3CCN(c4cc(Cl)c(Cl)c(Cl)c4)CC3)n2)c1 .
b0

Field: class (AC50) — entry: Cc1cccc(CNC(=O)c2csc(N3CCN(c4cccc(C)c4)CC3)n2)c1
b2

Field: class (AC50) — entry: COc1ccc(N2CCN(c3nc(C(=O)NCc4cccc(C(F)(F)F)c4)cs3)CC2)cc1
b1

###

Target: Human ALDH3A1 (Homo sapiens, UniProt P30838)
Experiment: ALDH3A1 biochemical assay (benzaldehyde/NADP+, diaphorase-resazurin readout, 1,536-well)
measured_metric: AC50 (µM)
Write the answer as a number in µM, unit excluded.

Given CN1CCOc2c(C(=O)NCc3cccnc3)cc(-c3cnn(C)c3)cc21 , respond with its AC50.
0.79

Give AC50 for the following compound: Cc1cccc(CNC(=O)c2csc(N3CCN(c4cccc([N+](=O)[O-])c4)CC3)n2)c1
0.36

Using the record for CC(=O)c1ccc(CNC(=O)c2csc(N3CCN(c4cccc(C(F)(F)F)c4)CC3)n2)cc1 , state its measured AC50.
0.02

Tell me AC50 reported for Cc1cccc(CNC(=O)c2csc(N3CCN(c4ccc(O)cc4)CC3)n2)c1
5.76

###

Biological target: Human ALDH3A1 (Homo sapiens)
Experiment: ALDH3A1 biochemical assay (benzaldehyde/NADP+, diaphorase-resazurin readout, 1,536-well)
Settings: Table S2, in-house analogs
measured_metric: Efficacy
Form rule: numeric answer, no unit written next to it.

Fill in reported Efficacy for this entry: O=C(NCC1CC1)c1csc(N2CCN(c3ccccc3F)CC2)n1
-37.07

Answer with the recorded Efficacy of O=C(NCc1ccccc1Cl)c1csc(N2CCN(c3ccc(F)cc3)CC2)n1 only.
-71.11

Check the records and state Efficacy for Cc1cc(CNC(=O)c2cc(-c3cnn(C)c3)cc3c2OCCN3C)no1
-39.10

###

Target: Human ALDH3A1 (Homo sapiens, UniProt P30838)
Test: ALDH3A1 biochemical assay (benzaldehyde/NADP+, diaphorase-resazurin readout, 1,536-well)
Settings: ALDH3A1 biochemical IC50, text
measured_metric: IC50 (µM)
Field: numeric (µM). Do not append units.

Fill in reported IC50 for this entry: Cc1cccc(CNC(=O)c2csc(N3CCN(c4ccccc4)CC3)n2)c1 [NCGC00430642-01]
1.41

###

Answer each item with its documented AC50.
Molecular target: OE19 (3A1) (Homo sapiens)
Sequence (P30838 1-453): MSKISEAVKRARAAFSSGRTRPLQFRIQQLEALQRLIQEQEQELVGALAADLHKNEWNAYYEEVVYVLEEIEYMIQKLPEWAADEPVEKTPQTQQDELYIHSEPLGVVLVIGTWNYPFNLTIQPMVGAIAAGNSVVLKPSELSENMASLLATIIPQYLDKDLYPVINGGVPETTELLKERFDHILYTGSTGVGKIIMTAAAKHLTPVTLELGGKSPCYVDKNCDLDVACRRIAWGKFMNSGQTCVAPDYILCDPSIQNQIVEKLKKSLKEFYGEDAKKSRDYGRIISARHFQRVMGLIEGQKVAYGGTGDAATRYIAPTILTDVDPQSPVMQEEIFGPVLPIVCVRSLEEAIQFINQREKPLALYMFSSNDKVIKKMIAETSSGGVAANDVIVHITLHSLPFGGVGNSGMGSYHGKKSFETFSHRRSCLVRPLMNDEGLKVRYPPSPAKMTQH
Experiment: Cellular ALDEFLUOR assay in OE19 cells (preferential ALDH3A1 expression)
The figure you give is taken to be in µM; do not add the unit.

Tell me measured AC50 for Cc1cc(CNC(=O)c2csc(N3CCN(c4cccc(C(F)(F)F)c4)CC3)n2)ccc1-c1ccccc1 [NCGC01407768-01] please.
15.8

State its AC50 for this molecule: O=C(NCc1ccc(-c2ccncc2)nc1)c1csc(N2CCN(c3cccc(C(F)(F)F)c3)CC2)n1 [NCGC01397294-01]
8.46

Report measured AC50; entry is COc1ccc(Cl)c(N2CCN(c3nc(C(=O)NCc4cccc(C)c4)cs3)CC2)c1 [NCGC01211381-01]
31.3

Tell us which AC50 value is on record for Cc1cccc(CNC(=O)c2csc(N3CCN(c4ccc(OCCF)cc4)CC3)n2)c1 [NCGC01211173-01]
1.4

Assign AC50 to the following record: O=C(NCc1ccc(C#CC2CC2)cc1)c1csc(N2CCN(c3cccc(C(F)(F)F)c3)CC2)n1 [NCGC01407809-01]
9.65

Provide one value: measured AC50 of O=C(NCc1cccc(OC(F)(F)F)c1)c1csc(N2CCN(c3cccc(C(F)(F)F)c3)CC2)n1 [NCGC01407819-01]
0.316

Complete the entry with AC50 for O=C(NCc1ccc(Oc2ccc(F)cc2)cc1)c1csc(N2CCN(c3cccc(C(F)(F)F)c3)CC2)n1 [NCGC01407922-01]
2.24

###

Record form. Attribute: AC50. Fill in for each entry.
Biological target: OE19 (3A1) (Homo sapiens, UniProt P30838)
Experiment: Cellular ALDEFLUOR assay in OE19 cells (preferential ALDH3A1 expression)
Give just the number in nM; leave the unit off.

Return AC50 for the following molecule: O=C(NCc1ccc2ccccc2c1)c1csc(N2CCN(c3cccc(C(F)(F)F)c3)CC2)n1
40.7

State its AC50 for this molecule: Cc1cccc(CNC(=O)c2csc(N3CCN(c4ccc(OC(F)(F)F)cc4)CC3)n2)c1
3930

Specify reported AC50 for the molecule shown: O=C(NCc1cccc(Cl)c1)c1csc(N2CCN(c3cccc(C(F)(F)F)c3)CC2)n1
811

Let me know recorded AC50 for Cc1cccc(CNC(=O)c2csc(N3CCN(c4cccc(F)c4)CC3)n2)c1 , thanks.
990

Kindly indicate its recorded AC50. Item: Cc1cccc(CNC(=O)c2csc(N3CCN(c4ccc(C5(C#N)CCCC5)cc4)CC3)n2)c1
3930

Could you please provide reported AC50 for O=C(Nc1ccncc1)c1ccc(CNC(=O)c2csc(N3CCN(c4cccc(C(F)(F)F)c4)CC3)n2)cc1 ? Thanks!
6310

Output measured AC50 for this item: Cc1cccc(CNC(=O)c2csc(N3CCN(c4cccc(OCc5ccc(Cl)cc5)c4)CC3)n2)c1
1570

Provide only the value of recorded AC50 for Cc1cccc(CNC(=O)c2csc(N3CCN(c4ncccc4C(F)(F)F)CC3)n2)c1
35100

Give a short answer stating reported AC50 for C[S+](=N)([O-])c1cccc(CNC(=O)c2csc(N3CCN(c4cccc(C(F)(F)F)c4)CC3)n2)c1 (stereo not shown) .
31.6

Using known records, supply AC50 for Cc1ccc(-c2cccc(CNC(=O)c3csc(N4CCN(c5cccc(C(F)(F)F)c5)CC4)n3)c2)cc1
10.2

Write down AC50 measured for item Cc1nc(-c2cccc(CNC(=O)c3csc(N4CCN(c5cccc(C(F)(F)F)c5)CC4)n3)c2)cs1
3.8

Please list AC50 recorded for the molecule Cc1cccc(CNC(=O)c2csc(N3CCN(c4ccc(F)c(Cl)c4)CC3)n2)c1
990

Specify AC50 for COC(=O)c1ccc(N2CCN(c3nc(C(=O)NCc4cccc(C)c4)cs3)CC2)cc1 and stop.
990

Answer with the recorded AC50 for the molecule listed here: Cc1cccc(CNC(=O)c2csc(N3CCN(c4ccccc4C)CC3)n2)c1
7850

Give me measured AC50, please, for this molecule: Cc1cccc(COc2ccc(CNC(=O)c3csc(N4CCN(c5cccc(C(F)(F)F)c5)CC4)n3)cc2)c1
20000

Assign AC50 to the following record: Cc1cccc(CNC(=O)c2csc(N3CCN(c4cccc([N+](=O)[O-])c4)CC3)n2)c1
500
